Source: ChEMBL document CHEMBL4229344

Please go through the items and note down their GI50.
target: Platelet-derived growth factor receptor beta (Homo sapiens); experiment: Inhibition of TEL-fused PDGFRbeta (unknown origin) expressed in mouse BA/F3 cells assessed as growth inhibition after 72 hrs by CellTiter-Glo or CCK-8 assay; type: cell-based
Sequence (P09619 whole entry, the tested form may be a part): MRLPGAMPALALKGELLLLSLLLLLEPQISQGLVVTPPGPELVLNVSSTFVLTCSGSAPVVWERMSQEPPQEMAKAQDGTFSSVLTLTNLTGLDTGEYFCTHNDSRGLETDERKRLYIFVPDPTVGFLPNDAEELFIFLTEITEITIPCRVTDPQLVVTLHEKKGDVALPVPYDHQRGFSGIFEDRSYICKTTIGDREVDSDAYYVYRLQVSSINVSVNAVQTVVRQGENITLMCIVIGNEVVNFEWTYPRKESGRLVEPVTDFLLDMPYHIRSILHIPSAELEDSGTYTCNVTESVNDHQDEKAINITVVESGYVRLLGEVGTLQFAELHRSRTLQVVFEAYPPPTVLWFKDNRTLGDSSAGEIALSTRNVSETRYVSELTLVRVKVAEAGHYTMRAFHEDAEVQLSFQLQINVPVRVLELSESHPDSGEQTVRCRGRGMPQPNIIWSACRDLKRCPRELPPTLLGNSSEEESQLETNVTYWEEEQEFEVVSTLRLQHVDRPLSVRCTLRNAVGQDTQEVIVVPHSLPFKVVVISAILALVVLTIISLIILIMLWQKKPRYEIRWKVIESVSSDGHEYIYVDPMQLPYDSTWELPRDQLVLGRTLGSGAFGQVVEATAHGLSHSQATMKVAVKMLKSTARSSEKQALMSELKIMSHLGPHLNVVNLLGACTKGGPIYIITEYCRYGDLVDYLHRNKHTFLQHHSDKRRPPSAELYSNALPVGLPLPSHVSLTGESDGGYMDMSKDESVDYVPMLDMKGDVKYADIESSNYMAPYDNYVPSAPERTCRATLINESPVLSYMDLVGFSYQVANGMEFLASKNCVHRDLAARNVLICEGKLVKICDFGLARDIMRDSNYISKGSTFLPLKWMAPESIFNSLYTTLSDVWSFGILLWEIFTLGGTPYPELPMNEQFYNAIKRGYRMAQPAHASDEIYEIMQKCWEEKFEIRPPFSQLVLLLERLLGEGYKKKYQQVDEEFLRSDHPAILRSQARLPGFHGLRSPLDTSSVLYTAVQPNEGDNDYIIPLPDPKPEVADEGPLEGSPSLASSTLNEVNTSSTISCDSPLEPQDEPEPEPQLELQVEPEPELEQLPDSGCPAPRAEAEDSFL
Numbers only, in nM.

compound_smiles=Cc1ccc(NC(=O)c2ccc(CN(CCO)C(=O)CN(C)C)cc2)cc1Nc1nccc(-c2cccnc2)n1 study_target="Platelet-derived growth factor receptor beta (Homo sapiens)" readout_units=nM test_value=3880

Please report GI50 for every entry that follows.
1. CCC(=O)Nc1cc(C(=O)Nc2ccc(C)c(Nc3nccc(-c4cccnc4)n3)c2)cc(C(F)(F)F)c1
2. C=CC(=O)NCc1ccc(C(=O)Nc2ccc(C)c(Nc3nccc(-c4cccnc4)n3)c2)cc1C(F)(F)F

1. 231
2. 161

get_value(item= C=CC(=O)Nc1cccc(C(=O)Nc2ccc(C)c(Nc3nccc(-c4cccnc4)n3)c2)c1 , readout=GI50) returns 173

---

assay: Apparent clearance in Sprague-Dawley rat at 10 mg/kg, po; format: ADME, organism-based; settings: in vivo, read-out: CL(app) (converted)
PARAMETER_MEASURED: CL/F (mL/min/kg)
One number for each entry, in mL/min/kg.

// field: CL/F; key: Cc1ccc(NC(=O)c2ccc(CN(CCN(C)C)C(=O)c3cccnc3)cc2)cc1Nc1nccc(-c2cccnc2)n1 ; value = 1450

---

biological target: Mast/stem cell growth factor receptor Kit (Homo sapiens)
Sequence (P10721 whole entry, the tested form may be a part): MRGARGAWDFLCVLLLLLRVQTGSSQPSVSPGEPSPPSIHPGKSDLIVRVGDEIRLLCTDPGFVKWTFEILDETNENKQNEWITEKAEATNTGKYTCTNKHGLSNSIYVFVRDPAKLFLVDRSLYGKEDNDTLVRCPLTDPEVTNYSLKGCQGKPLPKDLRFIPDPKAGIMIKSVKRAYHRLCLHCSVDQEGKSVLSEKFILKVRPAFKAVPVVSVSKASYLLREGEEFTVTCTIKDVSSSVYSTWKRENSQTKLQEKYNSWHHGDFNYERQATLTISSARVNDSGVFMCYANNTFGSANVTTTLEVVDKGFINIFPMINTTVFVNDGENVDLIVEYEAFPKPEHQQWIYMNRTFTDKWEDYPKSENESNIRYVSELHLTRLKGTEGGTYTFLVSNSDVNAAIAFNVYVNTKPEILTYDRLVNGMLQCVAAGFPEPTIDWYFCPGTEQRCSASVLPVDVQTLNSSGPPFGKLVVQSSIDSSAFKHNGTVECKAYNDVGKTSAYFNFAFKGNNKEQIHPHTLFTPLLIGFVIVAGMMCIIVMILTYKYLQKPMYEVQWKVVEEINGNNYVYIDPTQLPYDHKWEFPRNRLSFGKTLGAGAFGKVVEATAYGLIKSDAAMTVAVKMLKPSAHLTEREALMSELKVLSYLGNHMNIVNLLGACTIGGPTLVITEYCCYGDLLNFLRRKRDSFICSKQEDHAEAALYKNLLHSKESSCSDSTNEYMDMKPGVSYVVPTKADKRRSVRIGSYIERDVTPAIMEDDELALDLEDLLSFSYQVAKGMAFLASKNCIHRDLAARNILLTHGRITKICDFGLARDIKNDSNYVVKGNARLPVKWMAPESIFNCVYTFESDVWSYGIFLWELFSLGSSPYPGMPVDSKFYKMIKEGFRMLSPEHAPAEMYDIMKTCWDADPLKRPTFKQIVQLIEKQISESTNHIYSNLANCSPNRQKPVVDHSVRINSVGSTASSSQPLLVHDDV
PARAMETER_MEASURED: IC50

Item: Cc1ccc(NC(=O)c2ccc(CN(CCN(C)C)C(=O)c3cccnc3)cc2)cc1Nc1nccc(-c2cccnc2)n1 | IC50: > 10 µM

---

assay: Cytotoxicity against mouse BA/F3 cells after 72 hrs by CellTiter-Glo or CCK-8 assay; format: cell-based, BaF3
PARAMETER_MEASURED: GI50 at 72 h (µM)
Numbers only, in µM.

compound_smiles=C=CC(=O)Nc1cccc(C(=O)Nc2ccc(C)c(Nc3nccc(-c4cccnc4)n3)c2)c1 test_value=2.48
compound_smiles=C=CC(=O)N(CCN(CC)CC)Cc1ccc(C(=O)Nc2ccc(C)c(Nc3nccc(-c4cccnc4)n3)c2)cc1 test_value=5.45
compound_smiles=Cc1ccc(NC(=O)c2ccc(CNC(=O)c3cccnc3)c(C(F)(F)F)c2)cc1Nc1nccc(-c2cccnc2)n1 test_value=8.33

Lab book: GI50 at 72 h of C=CS(=O)(=O)NCc1ccc(C(=O)Nc2ccc(C)c(Nc3nccc(-c4cccnc4)n3)c2)cc1 noted as 7.71

---

experiment: Cytotoxicity against mouse BA/F3 cells after 72 hrs by CellTiter-Glo or CCK-8 assay; type: cell-based, BaF3
PARAMETER_MEASURED: GI50 at 72 h

compound_smiles=CCC(=O)NCc1cccc(C(=O)Nc2ccc(C)c(Nc3nccc(-c4cccnc4)n3)c2)c1 parameter_measured="GI50 at 72 h" test_value="4.75 µM"
compound_smiles=Cc1ccc(C(=O)N(CCN(C)C)Cc2ccc(C(=O)Nc3ccc(C)c(Nc4nccc(-c5cccnc5)n4)c3)cc2)cc1 parameter_measured="GI50 at 72 h" test_value="> 10 µM"
compound_smiles=CCC(=O)Nc1ccc(C(=O)Nc2ccc(C)c(Nc3nccc(-c4cccnc4)n3)c2)cc1 parameter_measured="GI50 at 72 h" test_value="> 10 µM"
compound_smiles=Cc1ccc(NC(=O)c2ccc(CN(CCN3CCCC3)C(=O)c3cccnc3)cc2)cc1Nc1nccc(-c2cccnc2)n1 parameter_measured="GI50 at 72 h" test_value="> 10 µM"
compound_smiles=C=CC(=O)Nc1cc(C(=O)Nc2ccc(C)c(Nc3nccc(-c4cccnc4)n3)c2)cc(C(F)(F)F)c1 parameter_measured="GI50 at 72 h" test_value="5.46 µM"

Please give GI50 at 72 h, item by item, for the list that follows.
1. Cc1ccc(NC(=O)c2ccc(CN(CCN(C)C)C(=O)CN(C)C)cc2)cc1Nc1nccc(-c2cccnc2)n1
2. C=CC(=O)NCc1cccc(C(=O)Nc2ccc(C)c(Nc3nccc(-c4cccnc4)n3)c2)c1
3. Cc1ccc(NC(=O)c2ccc(CN(CCO)C(=O)CN(C)C)cc2)cc1Nc1nccc(-c2cccnc2)n1

["> 10 µM", "> 10 µM", "> 10 µM"]

---

assay: Tmax in Sprague-Dawley rat at 10 mg/kg, po; format: ADME, organism-based; conditions: in vivo
PARAMETER_MEASURED: Tmax (h)
One number for each entry, in h.

compound_smiles=Cc1ccc(NC(=O)c2ccc(CN3CCN(C)CC3)cc2)cc1Nc1nccc(-c2cccnc2)n1 parameter_measured=Tmax test_value=6.67

Moving on to another molecule below.
For reference, reported Tmax for Cc1ccc(NC(=O)c2ccc(CN(CCN(C)C)C(=O)c3cccnc3)cc2)cc1Nc1nccc(-c2cccnc2)n1 stands at 1.5

---

molecular target: Epithelial discoidin domain-containing receptor 1 (Homo sapiens)
Sequence (Q08345 whole entry, the tested form may be a part): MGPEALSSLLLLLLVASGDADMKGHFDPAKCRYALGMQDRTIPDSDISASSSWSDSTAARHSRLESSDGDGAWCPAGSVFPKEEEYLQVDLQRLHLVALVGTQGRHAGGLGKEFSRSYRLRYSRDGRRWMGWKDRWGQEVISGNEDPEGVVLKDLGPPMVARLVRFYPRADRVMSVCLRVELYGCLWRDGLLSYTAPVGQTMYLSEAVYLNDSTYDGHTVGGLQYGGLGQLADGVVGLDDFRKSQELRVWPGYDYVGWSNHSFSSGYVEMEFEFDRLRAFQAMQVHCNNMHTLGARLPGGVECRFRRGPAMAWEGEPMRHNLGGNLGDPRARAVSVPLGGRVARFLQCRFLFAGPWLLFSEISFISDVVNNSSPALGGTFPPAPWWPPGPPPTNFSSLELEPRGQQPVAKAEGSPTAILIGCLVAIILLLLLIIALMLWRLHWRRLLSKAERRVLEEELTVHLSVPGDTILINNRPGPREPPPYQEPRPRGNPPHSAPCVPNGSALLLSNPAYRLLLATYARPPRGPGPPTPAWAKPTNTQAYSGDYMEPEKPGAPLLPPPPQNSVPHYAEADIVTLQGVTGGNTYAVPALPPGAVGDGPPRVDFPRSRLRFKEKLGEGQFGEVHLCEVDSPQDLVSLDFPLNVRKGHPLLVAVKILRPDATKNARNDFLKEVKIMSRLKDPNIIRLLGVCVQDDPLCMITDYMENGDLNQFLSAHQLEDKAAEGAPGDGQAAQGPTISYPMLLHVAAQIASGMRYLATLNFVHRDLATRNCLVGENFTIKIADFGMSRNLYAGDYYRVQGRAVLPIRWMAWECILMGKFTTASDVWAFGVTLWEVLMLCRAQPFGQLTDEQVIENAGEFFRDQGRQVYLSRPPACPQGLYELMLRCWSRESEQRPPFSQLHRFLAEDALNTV
PARAMETER_MEASURED: IC50 (µM)
One number for each entry, in µM.

GET /value?item= Cc1ccc(NC(=O)c2ccc(CN(CCN(C)C)C(=O)c3cccnc3)cc2)cc1Nc1nccc(-c2cccnc2)n1 &field=IC50 returns 2.46

---

biological target: Platelet-derived growth factor receptor alpha (Homo sapiens, UniProt P16234)
Sequence (P16234 whole entry): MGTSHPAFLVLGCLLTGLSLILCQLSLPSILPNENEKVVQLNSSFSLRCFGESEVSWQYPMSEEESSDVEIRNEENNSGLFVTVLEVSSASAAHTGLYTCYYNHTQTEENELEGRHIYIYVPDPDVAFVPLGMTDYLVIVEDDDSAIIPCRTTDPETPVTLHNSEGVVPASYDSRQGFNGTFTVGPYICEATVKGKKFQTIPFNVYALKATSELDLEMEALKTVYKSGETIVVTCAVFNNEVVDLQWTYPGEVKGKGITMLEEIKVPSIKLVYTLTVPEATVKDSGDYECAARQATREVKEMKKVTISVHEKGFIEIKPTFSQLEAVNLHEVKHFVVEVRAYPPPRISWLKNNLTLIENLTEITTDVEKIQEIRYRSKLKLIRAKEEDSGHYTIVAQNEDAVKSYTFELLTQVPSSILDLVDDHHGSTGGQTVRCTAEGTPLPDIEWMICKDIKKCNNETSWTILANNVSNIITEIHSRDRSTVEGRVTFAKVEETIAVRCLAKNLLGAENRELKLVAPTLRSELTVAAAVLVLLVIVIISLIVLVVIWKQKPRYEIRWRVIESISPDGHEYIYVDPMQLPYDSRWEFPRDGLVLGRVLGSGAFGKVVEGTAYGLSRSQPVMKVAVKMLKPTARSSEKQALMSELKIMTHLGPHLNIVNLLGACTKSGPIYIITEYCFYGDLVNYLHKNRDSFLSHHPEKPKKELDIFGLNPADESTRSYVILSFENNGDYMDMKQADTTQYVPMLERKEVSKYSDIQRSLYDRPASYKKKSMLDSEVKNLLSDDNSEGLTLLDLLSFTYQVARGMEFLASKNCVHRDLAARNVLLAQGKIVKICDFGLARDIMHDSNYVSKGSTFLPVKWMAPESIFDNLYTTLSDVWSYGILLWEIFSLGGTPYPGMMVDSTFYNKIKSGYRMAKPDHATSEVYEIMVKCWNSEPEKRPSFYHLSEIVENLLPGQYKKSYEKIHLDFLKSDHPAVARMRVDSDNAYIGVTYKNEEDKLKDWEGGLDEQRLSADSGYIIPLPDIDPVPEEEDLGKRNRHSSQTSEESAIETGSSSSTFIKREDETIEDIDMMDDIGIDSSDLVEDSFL
PARAMETER_MEASURED: pIC50
Numbers only, as −log10 of the molar value.

pIC50 for Cc1ccc(NC(=O)c2ccc(CN(CCN(C)C)C(=O)c3cccnc3)cc2)cc1Nc1nccc(-c2cccnc2)n1 is 6.88

---

target: Mast/stem cell growth factor receptor Kit (Homo sapiens); experiment: Inhibition of TEL-fused c-KIT (unknown origin) expressed in mouse BA/F3 cells assessed as growth inhibition after 72 hrs by CellTiter-Glo or CCK-8 assay; format: cell-based
PARAMETER_MEASURED: log10 of GI50 (log10 of the value in µM)
Values below are the log10 of the recorded GI50, with µM as the unit.

A selection of reference data follows.
compound_smiles=Cc1ccc(NC(=O)c2ccc(CN(CCN(C)C)C(=O)C(C)(C)C)cc2)cc1Nc1nccc(-c2cccnc2)n1 parameter_measured="log10 of GI50" test_value=0.40
compound_smiles=C=CC(=O)Nc1cccc(C(=O)Nc2ccc(C)c(Nc3nccc(-c4cccnc4)n3)c2)c1 parameter_measured="log10 of GI50" test_value=0.18
compound_smiles=Cc1ccc(NC(=O)c2ccc(CN(CCN(C)C)C(=O)C(C)C)cc2)cc1Nc1nccc(-c2cccnc2)n1 parameter_measured="log10 of GI50" test_value=0.79

Could I get log10 of GI50 for every one of these entries?
1. CCC(=O)Nc1cc(C(=O)Nc2ccc(C)c(Nc3nccc(-c4cccnc4)n3)c2)cc(C(F)(F)F)c1
2. Cc1ccc(NC(=O)c2ccc(CNC(=O)c3cccnc3)cc2)cc1Nc1nccc(-c2cccnc2)n1
3. Cc1ccc(NC(=O)c2ccc(CNC(=O)c3cccnc3)c(C(F)(F)F)c2)cc1Nc1nccc(-c2cccnc2)n1
4. C=CS(=O)(=O)NCc1ccc(C(=O)Nc2ccc(C)c(Nc3nccc(-c4cccnc4)n3)c2)cc1
5. C=CC(=O)Nc1cc(C(=O)Nc2ccc(C)c(Nc3nccc(-c4cccnc4)n3)c2)cc(C(F)(F)F)c1

1: -0.98; 2: -0.67; 3: -1.18; 4: -0.24; 5: -0.60

Please look at the items below and tell me log10 of GI50 for each one, in order.
1. Cc1ccc(NC(=O)c2ccc(CNCCN(C)C)cc2)cc1Nc1nccc(-c2cccnc2)n1
2. CCC(=O)NCc1cccc(C(=O)Nc2ccc(C)c(Nc3nccc(-c4cccnc4)n3)c2)c1

1. 0.70
2. 0.47

---

target: Platelet-derived growth factor receptor alpha (Homo sapiens)
Give GI50 for every item shown.
# do not omit the unit; it follows the number

compound_smiles=Cc1ccc(NC(=O)c2ccc(CN(CCO)C(=O)CN(C)C)cc2)cc1Nc1nccc(-c2cccnc2)n1 study_target="Platelet-derived growth factor receptor alpha (Homo sapiens)" parameter_measured=GI50 test_value="363 nM"
compound_smiles=CCN(CC)CCN(Cc1ccc(C(=O)Nc2ccc(C)c(Nc3nccc(-c4cccnc4)n3)c2)cc1)C(=O)c1cccnc1 study_target="Platelet-derived growth factor receptor alpha (Homo sapiens)" parameter_measured=GI50 test_value="33 nM"
compound_smiles=C=CC(=O)N(CCN(C)C)Cc1ccc(C(=O)Nc2ccc(C)c(Nc3nccc(-c4cccnc4)n3)c2)cc1 study_target="Platelet-derived growth factor receptor alpha (Homo sapiens)" parameter_measured=GI50 test_value="11 nM"
compound_smiles=CCC(=O)NCc1cccc(C(=O)Nc2ccc(C)c(Nc3nccc(-c4cccnc4)n3)c2)c1 study_target="Platelet-derived growth factor receptor alpha (Homo sapiens)" parameter_measured=GI50 test_value="15 nM"
compound_smiles=Cc1ccc(NC(=O)c2ccc(CN(CCN(C)C)C(=O)C3CC3)cc2)cc1Nc1nccc(-c2cccnc2)n1 study_target="Platelet-derived growth factor receptor alpha (Homo sapiens)" parameter_measured=GI50 test_value="112 nM"
compound_smiles=Cc1ccc(NC(=O)c2ccc(CN(CCN(C)C)C(=O)c3ccno3)cc2)cc1Nc1nccc(-c2cccnc2)n1 study_target="Platelet-derived growth factor receptor alpha (Homo sapiens)" parameter_measured=GI50 test_value="166 nM"

Next item in the queue.
Reported GI50 for Cc1ccc(NC(=O)c2ccc(CN(CCN(C)C)C(=O)C(C)C)cc2)cc1Nc1nccc(-c2cccnc2)n1 was 39 nM
